Data credit: patent US12122761B2

# Test system: human cloned CHRM2 receptor (M2_CHO cells) (Homo sapiens, UniProt P08172)
# Construct: expressed in transfected cells; host or cells: CHO-K1
# Sequence (P08172 whole entry): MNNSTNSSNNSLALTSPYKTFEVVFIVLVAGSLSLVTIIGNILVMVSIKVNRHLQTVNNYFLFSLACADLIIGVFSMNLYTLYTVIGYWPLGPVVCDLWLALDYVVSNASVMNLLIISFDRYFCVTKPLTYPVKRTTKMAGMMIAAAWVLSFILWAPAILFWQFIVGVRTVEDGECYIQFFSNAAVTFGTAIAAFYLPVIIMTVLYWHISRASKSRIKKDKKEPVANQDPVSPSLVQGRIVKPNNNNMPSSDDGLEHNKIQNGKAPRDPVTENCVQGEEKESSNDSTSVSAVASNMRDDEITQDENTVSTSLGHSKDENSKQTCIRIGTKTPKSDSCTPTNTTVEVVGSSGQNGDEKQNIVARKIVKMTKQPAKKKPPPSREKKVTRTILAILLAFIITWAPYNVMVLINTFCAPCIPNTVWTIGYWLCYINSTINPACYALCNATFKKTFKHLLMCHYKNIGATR
# Test protocol: CHRM2 Ca++ Flux Assay (agonist mode, FDSS 7000EX)
# Assay type: cell-based
# Particulars: agonist mode; geometric mean if tested more than once; citrate salt; read-out: M2 FDSS EC50
pEC50: −log10 of the molar value.

Molecule: O=C(C1COC1)N1CC2(CC[C@H](N3CCC(c4ccccc4OC(F)F)CC3)C2)C1.O=C(O)CC(O)(CC(=O)O)C(=O)O (single isomer, unassigned) [Example 8E, citrate salt]
pEC50: 7.02

----------
# Test system: human cloned CHRM3 receptor (M3_CHO cells) (Homo sapiens)
# Sequence (P20309 whole entry): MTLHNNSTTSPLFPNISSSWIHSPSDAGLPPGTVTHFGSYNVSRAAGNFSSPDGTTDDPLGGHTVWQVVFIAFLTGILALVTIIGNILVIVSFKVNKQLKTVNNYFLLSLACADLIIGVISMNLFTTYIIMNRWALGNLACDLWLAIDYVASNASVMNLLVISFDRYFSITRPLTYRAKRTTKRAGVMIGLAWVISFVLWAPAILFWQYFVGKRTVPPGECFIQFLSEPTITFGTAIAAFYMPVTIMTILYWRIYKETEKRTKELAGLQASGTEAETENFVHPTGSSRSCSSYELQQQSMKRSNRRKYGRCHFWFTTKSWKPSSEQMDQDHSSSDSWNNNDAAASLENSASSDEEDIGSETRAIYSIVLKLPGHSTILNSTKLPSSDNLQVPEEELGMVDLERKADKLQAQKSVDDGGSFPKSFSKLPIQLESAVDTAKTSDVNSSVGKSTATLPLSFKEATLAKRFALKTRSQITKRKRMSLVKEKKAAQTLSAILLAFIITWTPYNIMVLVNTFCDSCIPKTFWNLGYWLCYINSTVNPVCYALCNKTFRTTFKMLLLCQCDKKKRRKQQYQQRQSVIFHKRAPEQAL
# Test protocol: CHRM3 Ca++ Flux Assay (agonist mode, FDSS 7000EX)
# Particulars: agonist mode; geometric mean if tested more than once; read-out: M3 FDSS EC50
Metric name: EC50

Compound: O=C(N1CC2(CC[C@@H](N3CCC(c4ccccc4OCC4CCOCC4)CC3)C2)C1)C1(F)CC1 (single isomer, unassigned)
Measurement: > 25 µM
--
Compound: Cc1noc(C)c1COc1ccccc1C1CCN([C@@H]2CCC3(C2)CN(C(=O)C2(F)CC2)C3)CC1 (single isomer, unassigned)
Measurement: > 25 µM
--
Compound: Fc1cncc(N2CC3(CC[C@@H](N4CCC(c5cc(F)ccc5OC5CCOCC5)CC4)C3)C2)c1 (single isomer, unassigned) [Example 10A]
Measurement: > 25 µM
--
Compound: Fc1ccc(N2CC3(CC[C@@H](N4CCC(c5ccccc5C5CCOCC5)CC4)C3)C2)cn1
Measurement: > 25 µM
--
Compound: Fc1ccc(C2CCOCC2)c(C2CCN([C@@H]3CCC4(C3)CN(c3nnco3)C4)CC2)c1
Measurement: > 25 µM
--
Compound: FC(F)Oc1ccccc1C1CCN([C@@H]2CCC3(C2)CN(c2nncs2)C3)CC1 (single isomer, unassigned) [Example 10O]
Measurement: > 25 µM
